Below, each entry is listed with its recorded inhibition in vivo at 25 mg/kg.
- Tested on: spontaneous mastocarcinoma
- ASSAY SUMMARY: Antitumor effects: tumor growth inhibition in rats with mastocarcinoma
- Type: in vivo, Sprague-Dawley rats
- CONDITION NOTES: Rattus norvegicus, ip; female Sprague-Dawley rats given 7,12-dimethylbenzanthracene; intraperitoneal, 25 mg/kg daily for 20 consecutive days; mean tumor weight vs saline control; read-out: Tumor growth inhibition rate (%)
PARAMETER MEASURED: inhibition in vivo at 25 mg/kg (%)

[
  {
    "COMPOUND": "CC1OCC(Cc2ccc(F)cc2)C1(O)Cn1ccnc1 (stereo not shown)",
    "PARAMETER MEASURED": "inhibition in vivo at 25 mg/kg",
    "QUANTITY UNIT": "%",
    "RESULT": 54
  },
  {
    "COMPOUND": "CC1(C)OCC(Cc2ccc(Cl)cc2Cl)C1(O)Cn1cncn1 (stereo not shown)",
    "PARAMETER MEASURED": "inhibition in vivo at 25 mg/kg",
    "QUANTITY UNIT": "%",
    "RESULT": 55
  },
  {
    "COMPOUND": "CC1(C)OCC(Cc2ccc(F)cc2)C1(O)Cn1cncn1 (stereo not shown)",
    "PARAMETER MEASURED": "inhibition in vivo at 25 mg/kg",
    "QUANTITY UNIT": "%",
    "RESULT": 58
  },
  {
    "COMPOUND": "CC1(C)OCC(Cc2ccccc2-c2ccccc2)C1(O)Cn1ccnc1 (stereo not shown)",
    "PARAMETER MEASURED": "inhibition in vivo at 25 mg/kg",
    "QUANTITY UNIT": "%",
    "RESULT": 85
  },
  {
    "COMPOUND": "CC1(C)OCC(Cc2ccc(Cl)cc2)C1(O)Cn1cncn1 (stereo not shown)",
    "PARAMETER MEASURED": "inhibition in vivo at 25 mg/kg",
    "QUANTITY UNIT": "%",
    "RESULT": 65
  },
  {
    "COMPOUND": "CC1(C)OCC(Cc2ccc(C#N)cc2)C1(O)Cn1ccnc1 (stereo not shown)",
    "PARAMETER MEASURED": "inhibition in vivo at 25 mg/kg",
    "QUANTITY UNIT": "%",
    "RESULT": 73
  },
  {
    "COMPOUND": "CC1(C)OCC(Cc2ccc(Cl)cc2Cl)C1(O)Cn1ccnc1 (stereo not shown)",
    "PARAMETER MEASURED": "inhibition in vivo at 25 mg/kg",
    "QUANTITY UNIT": "%",
    "RESULT": 70
  },
  {
    "COMPOUND": "CC1(C)OCC(Cc2ccc(F)cc2F)C1(O)Cn1cncn1 (stereo not shown)",
    "PARAMETER MEASURED": "inhibition in vivo at 25 mg/kg",
    "QUANTITY UNIT": "%",
    "RESULT": 48
  },
  {
    "COMPOUND": "OC1(Cn2cncn2)COCC1Cc1ccc(F)cc1 (stereo not shown)",
    "PARAMETER MEASURED": "inhibition in vivo at 25 mg/kg",
    "QUANTITY UNIT": "%",
    "RESULT": 72
  },
  {
    "COMPOUND": "CC1(C)OCC(Cc2ccc(F)cc2)C1(O)Cn1ccnc1 (stereo not shown)",
    "PARAMETER MEASURED": "inhibition in vivo at 25 mg/kg",
    "QUANTITY UNIT": "%",
    "RESULT": 63
  }
]
